subject_of_test: Recombinant human ERO1α (Homo sapiens, UniProt Q96HE7)
Sequence (Q96HE7 24-468): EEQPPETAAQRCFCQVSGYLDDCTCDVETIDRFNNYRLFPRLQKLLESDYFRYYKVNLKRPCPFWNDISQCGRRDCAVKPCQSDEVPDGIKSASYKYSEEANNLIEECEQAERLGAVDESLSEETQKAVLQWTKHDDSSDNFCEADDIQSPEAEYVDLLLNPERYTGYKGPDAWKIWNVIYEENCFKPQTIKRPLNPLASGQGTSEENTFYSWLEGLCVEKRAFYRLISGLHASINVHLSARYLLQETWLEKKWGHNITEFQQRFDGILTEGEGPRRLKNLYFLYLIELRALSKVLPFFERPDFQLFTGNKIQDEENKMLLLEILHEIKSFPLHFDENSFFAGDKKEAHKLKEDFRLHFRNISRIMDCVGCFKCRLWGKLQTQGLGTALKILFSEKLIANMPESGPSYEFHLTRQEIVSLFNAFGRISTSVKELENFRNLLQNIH
assay_remarks: fluorescence-based ERO1α activity assay
experimental_context: read-out: IC50 (ERO1α activity); mean ± SD, n = 3
endpoint: IC50 (µM)
Report the value in µM with no unit label.

Query string: Query IC50 for O=C(O)c1cc(N2N=C(C(F)(F)F)/C(=C/c3ccc(-c4ccccc4)o3)C2=O)ccc1Cl [EN460]
Result string: 5.5
